Data provenance: patent US4450269A

Provide the recorded Spore Germination Rating for the entries that follow.
tested on: Alternaria solani; test: Spore germination test; format: cell-based; conditions: AS, 1.0 ppm, 48 hours

Annotate the compound Cc1ccc(Cl)c(Oc2nsnc(Cl)c2=O)c1 with its measured Spore Germination Rating.
4 (80-100)

Annotate the compound O=c1c(Cl)nsnc1Oc1ccccc1Br with its measured Spore Germination Rating.
4 (80-100)

Annotate the compound O=c1c(Cl)nsnc1Oc1ccc(O)cc1 with its measured Spore Germination Rating.
4 (80-100)

Annotate the compound Cc1cc(Oc2nsnc(Cl)c2=O)cc(C)c1Br with its measured Spore Germination Rating.
4 (80-100)

Annotate the compound O=c1c(Cl)nsnc1Oc1cccc(C(F)(F)F)c1 with its measured Spore Germination Rating.
4 (80-100)

Annotate the compound CCCCNC(=O)n1c(NC(=O)OC)nc2ccccc21 [Benomyl, reference compound] with its measured Spore Germination Rating.
4 (80-100)

Annotate the compound O=c1c(Cl)nsnc1Oc1c(Cl)cccc1Cl with its measured Spore Germination Rating.
3 (60-80)

Annotate the compound CC(=O)Nc1ccc(Oc2nsnc(Cl)c2=O)cc1 with its measured Spore Germination Rating.
3 (60-80)

Annotate the compound O=c1c(Cl)nsnc1Oc1ccc(Cl)cc1Cl with its measured Spore Germination Rating.
2 (40-60)

Annotate the compound O=C(O)c1ccc(Oc2nsnc(Cl)c2=O)cc1 with its measured Spore Germination Rating.
4 (80-100)

----------
system: Helminthosporium oryzae; test: Mycelial growth test; conditions: Bipolaris oryzae, 72 h, read-out: Percent Fungus Growth Inhibition, HO, 40 ppm, 72 hours
Provide the recorded inhibition at 40 ppm for the entries that follow.
Respond with the bare value in %.

Annotate the compound Cc1cc(Oc2nsnc(Cl)c2=O)cc(C)c1Br with its measured inhibition at 40 ppm.
100

Annotate the compound Cc1ccc(Oc2nsnc(Cl)c2=O)c(Br)c1 with its measured inhibition at 40 ppm.
100

Annotate the compound CCCCOc1ccc(Oc2nsnc(Cl)c2=O)cc1 with its measured inhibition at 40 ppm.
48

Annotate the compound Cc1cc(Cl)ccc1Oc1nsnc(Cl)c1=O with its measured inhibition at 40 ppm.
100

Annotate the compound CC(=O)Nc1ccccc1Oc1nsnc(Cl)c1=O with its measured inhibition at 40 ppm.
91

Annotate the compound O=c1c(Cl)nsnc1Oc1ccc(F)cc1 with its measured inhibition at 40 ppm.
100

Annotate the compound CC(=O)Nc1cccc(Oc2nsnc(Cl)c2=O)c1 with its measured inhibition at 40 ppm.
100

Annotate the compound CC(=O)c1ccccc1Oc1nsnc(Cl)c1=O with its measured inhibition at 40 ppm.
100

Annotate the compound O=c1c(Cl)nsnc1Oc1c(Cl)cccc1Cl with its measured inhibition at 40 ppm.
100

Annotate the compound Cc1cccc(Oc2nsnc(Cl)c2=O)c1 with its measured inhibition at 40 ppm.
100

Annotate the compound COc1cc(Cl)cc(Oc2nsnc(Cl)c2=O)c1 with its measured inhibition at 40 ppm.
100

Annotate the compound Cc1ccc(Oc2nsnc(Cl)c2=O)c(C)c1 with its measured inhibition at 40 ppm.
100

Annotate the compound O=c1c(Cl)nsnc1Oc1c(Cl)c(Cl)c(Cl)c(Cl)c1Cl with its measured inhibition at 40 ppm.
100

Annotate the compound CC(=O)Nc1ccc(Oc2nsnc(Cl)c2=O)cc1 with its measured inhibition at 40 ppm.
81

Annotate the compound O=c1c(Cl)nsnc1Oc1cccc(C(F)(F)F)c1 with its measured inhibition at 40 ppm.
100

Annotate the compound O=C(Nc1ccccc1)Nc1ccc(Oc2nsnc(Cl)c2=O)cc1 with its measured inhibition at 40 ppm.
0

Annotate the compound CCOC(=O)c1ccc(Oc2nsnc(Cl)c2=O)cc1 with its measured inhibition at 40 ppm.
100

Annotate the compound O=c1c(Cl)nsnc1Oc1cccc(Cl)c1Cl with its measured inhibition at 40 ppm.
100

Annotate the compound CNC(=O)Nc1ccc(Oc2nsnc(Cl)c2=O)cc1 with its measured inhibition at 40 ppm.
64

Annotate the compound O=C(O)c1ccc(Oc2nsnc(Cl)c2=O)cc1 with its measured inhibition at 40 ppm.
100

Annotate the compound O=C(O)Cc1ccccc1Oc1nsnc(Cl)c1=O with its measured inhibition at 40 ppm.
100

Annotate the compound O=c1c(Cl)nsnc1Oc1c(Cl)cc(Cl)cc1Cl with its measured inhibition at 40 ppm.
100

Annotate the compound Cc1cccc(C)c1Oc1nsnc(Cl)c1=O with its measured inhibition at 40 ppm.
100

Annotate the compound O=c1c(Cl)nsnc1Oc1ccc(O)cc1 with its measured inhibition at 40 ppm.
100

Annotate the compound O=c1c(Cl)nsnc1Oc1ccc([N+](=O)[O-])cc1Cl with its measured inhibition at 40 ppm.
100

Annotate the compound O=c1c(Cl)nsnc1Oc1ccccc1Cl with its measured inhibition at 40 ppm.
100

Annotate the compound CC(C)(C)c1ccc(Oc2nsnc(Cl)c2=O)cc1 with its measured inhibition at 40 ppm.
33

Annotate the compound C[S+]([O-])c1ccc(Oc2nsnc(Cl)c2=O)cc1 (centres unmarked) with its measured inhibition at 40 ppm.
100

Annotate the compound O=c1c(Cl)nsnc1Oc1cc(Cl)cc(Cl)c1 with its measured inhibition at 40 ppm.
100

Annotate the compound N#CCc1ccc(Oc2nsnc(Cl)c2=O)cc1 with its measured inhibition at 40 ppm.
100

Annotate the compound CS(=O)(=O)c1ccc(Oc2nsnc(Cl)c2=O)cc1 with its measured inhibition at 40 ppm.
60

Annotate the compound COc1cc(Oc2nsnc(Cl)c2=O)cc(OC)c1C(C)=O with its measured inhibition at 40 ppm.
100

Annotate the compound COc1ccc(Oc2nsnc(Cl)c2=O)cc1 with its measured inhibition at 40 ppm.
100

Annotate the compound Cc1ccc(Oc2nsnc(Cl)c2=O)cc1 with its measured inhibition at 40 ppm.
100

Annotate the compound Cc1ccc(Cl)c(Oc2nsnc(Cl)c2=O)c1 with its measured inhibition at 40 ppm.
100

Annotate the compound O=c1c(Cl)nsnc1Oc1ccc([N+](=O)[O-])cc1 with its measured inhibition at 40 ppm.
100

Annotate the compound O=c1c(Cl)nsnc1Oc1ccc(Br)cc1 with its measured inhibition at 40 ppm.
100

Annotate the compound O=c1c(Cl)nsnc1Oc1ccc(Cl)cc1Cl with its measured inhibition at 40 ppm.
100

Annotate the compound O=c1c(Cl)nsnc1Oc1ccc(Cl)cc1 with its measured inhibition at 40 ppm.
100

Annotate the compound N#Cc1ccc(Oc2nsnc(Cl)c2=O)cc1 with its measured inhibition at 40 ppm.
100

Annotate the compound O=c1c(Cl)nsnc1Oc1ccccc1 with its measured inhibition at 40 ppm.
100

Annotate the compound CSc1ccc(Oc2nsnc(Cl)c2=O)cc1 with its measured inhibition at 40 ppm.
80

Annotate the compound Cc1cc(C)cc(Oc2nsnc(Cl)c2=O)c1 with its measured inhibition at 40 ppm.
100

Annotate the compound CC(=O)c1ccc(Oc2nsnc(Cl)c2=O)cc1 with its measured inhibition at 40 ppm.
100
